Values were extracted from patent US20140221287A1.

Molecular target: T1, human amylin receptor 3 (AMY3) (human, UniProt P30988 25-474; O60896 24-148)
T1 sequence (looked up) 1: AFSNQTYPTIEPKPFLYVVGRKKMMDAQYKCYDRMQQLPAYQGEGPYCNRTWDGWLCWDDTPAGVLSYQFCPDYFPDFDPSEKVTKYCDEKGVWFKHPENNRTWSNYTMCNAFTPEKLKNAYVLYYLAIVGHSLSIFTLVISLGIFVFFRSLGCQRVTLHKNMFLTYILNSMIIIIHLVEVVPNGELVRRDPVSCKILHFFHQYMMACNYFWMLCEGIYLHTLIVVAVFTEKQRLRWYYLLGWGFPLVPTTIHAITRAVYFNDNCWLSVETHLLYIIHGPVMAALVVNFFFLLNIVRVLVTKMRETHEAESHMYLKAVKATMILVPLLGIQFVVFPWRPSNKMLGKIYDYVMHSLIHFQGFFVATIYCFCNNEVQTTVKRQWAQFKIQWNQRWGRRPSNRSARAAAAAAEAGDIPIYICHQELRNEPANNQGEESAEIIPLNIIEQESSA
T1 sequence (looked up) 2: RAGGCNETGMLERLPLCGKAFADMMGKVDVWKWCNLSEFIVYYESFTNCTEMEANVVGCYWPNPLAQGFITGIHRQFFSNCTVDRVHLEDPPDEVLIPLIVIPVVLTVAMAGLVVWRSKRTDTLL
Test: cell-based or functional assay
No end group written: not given here.
metric: EC50 (nM), cAMP accumulation (HTRF)

[
  {
    "binder": "CNTATCATQRLANFLVHSSNNFK(mPEG40KD)PILPPTNVGSNTY-NH2 (ends and bridges not checked, also called Compound 32) [Cmpd 32, [K^24(mPEG40KD)]-Cmpd 14]",
    "EC50 (nM), cAMP accumulation (HTRF)": 0.598
  }
]

1: CNTATCATQRLANFLVHSSNNFGPK(Y‑shaped‑mPEG40KD)LPPTNVGSNTY-NH2 (ends and bridges not checked, also called Compound 31) [Cmpd 31, [K^26(Y-shaped-mPEG40KD)]-Cmpd 12]
2: CNTATCATQRLANFLVHSSNNFGPILK(mPEG40KD)PTNVGSNTY-NH2 (ends and bridges not checked, also called Compound 35) [Cmpd 35, [K^28(mPEG40KD)]-Cmpd 17]
Ask: Given 1 and 2 , report the one with the higher recorded EC50 (nM), cAMP accumulation (HTRF). # respond with the chosen item's label
Result: 1
